Reported AC50 values for a set of compounds
- System: INS1
- procedure.text: INS-1E survival protection against cytokine death – cell-based, luminescence, retest, dose response (AID 449756);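 further: cell death triggered by IL-1 beta plus TNF-alpha plus IFN-gamma mixture; protective hits raise ATP signal compared with cytokine alone wells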
- Type: functional
- stated.conditions: Rattus norvegicus
Active and inactive are the calls of the source.

Worked cases, answers included:
>  <molecular.string>
O=C(Nc1nc(-c2ccccn2)cs1)c1ccc([N+](=O)[O-])o1

>  <endpoint.value>
2.11 µM (active)

$$$$
>  <molecular.string>
Cc1ccc(NC(=O)Cn2c(=O)oc3cc(S(=O)(=O)N4CCC(C)CC4)ccc32)cc1C

>  <endpoint.value>
8.95 µM (active)

$$$$

Prompt: GET /values?readout=AC50&item= `COc1ccc(C)cc1NS(=O)(=O)c1ccc(NC(=O)CN(c2cc([N+](=O)[O-])ccc2C)S(C)(=O)=O)cc1`
Completion: 0.846 µM (active)

* * *

Reported CC50 values for a set of compounds
- procedure.text: viability of uninfected HEp-2 cells – cell-based, HTS, cytotoxicity control for RSV inhibitor project, dose response (AID 2410)
- Format: functional
- stated.conditions: human respiratory syncytial virus
Activity calls are given as the source filed them.

Worked cases, answers included:
>  <compound>
O=C1Nc2ccccc2CCC1Sc1nnc(-c2ccc(Cl)cc2)s1 (centres undefined)

>  <endpoint.value>
3.7 µM (active)

$$$$
>  <compound>
Cc1ccc2ccc(S(=O)(=O)NCc3ccco3)cc2c1

>  <endpoint.value>
29.2 µM (active)

$$$$
>  <compound>
CC(C)(C)c1ccc(C(=O)N2CCC(C(=O)NC3CCCCCC3)CC2)cc1

>  <endpoint.value>
42 µM (active)

$$$$

// moving on: another record for CC50
Prompt: GET /values?readout=CC50&item= `O=C(/C=C/c1cccc([N+](=O)[O-])c1)NCCSCc1ccccc1Cl`
Completion: 25.4 µM (active)

* * *

- procedure.text: Trypanosoma cruzi growth suppression in host cells – NIH3T3 host cells, beta-gal luminescence, confirmation (AID 2044);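 further: intracellular parasites grown in NIH/3T3 mouse fibroblasts as host cells; luminescent beta-galactosidase reporter signal from transgenic T. cruzi replicating inside host cells; inhibitors lower the luminescence signal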
- Type: functional, cell-based
Active and inactive are the calls of the source.
parameter: EC50

Worked cases, answers included:
>  <compound>
CCOC(=O)C1CCN(Cc2ccc(O)c3ncccc23)CC1

>  <EC50>
3260 nM (active)

$$$$
>  <compound>
Cc1ccc(S(=O)(=O)N2CCC(=O)N(C(COCc3ccc(Cl)cc3Cl)Cc3ccccc3)CC2)cc1 (centres undefined)

>  <EC50>
1580 nM (active)

$$$$
>  <compound>
Cc1ccc(CNC(=O)CCC2CCCN(Cc3cc4ccccc4o3)C2)o1 (centres undefined)

>  <EC50>
< 100 nM (active)

$$$$
>  <compound>
N=C(N)N/N=C/c1ccccc1

>  <EC50>
< 100 nM (active)

$$$$
>  <compound>
CCOC(=O)c1cnc(-n2nc(C)cc2C)nc1Nc1ccc(N(C)C)cc1

>  <EC50>
1120 nM (active)

$$$$
>  <compound>
Cl.OCCN1CCN(CCOc2cccc(Cl)c2)CC1

>  <EC50>
413 nM (active)

$$$$
>  <compound>
C=C(C(=O)c1ccccc1)C(C(=C)C(=O)c1ccccc1)c1ccc(OC)cc1

>  <EC50>
2880 nM (active)

$$$$
>  <compound>
COc1ccc(CCN(C)CC(=O)Nc2c(C)cc(C)cc2C)cc1OC

>  <EC50>
592 nM (active)

$$$$

// moving on: another record for EC50
Prompt: GET /values?readout=EC50&item= CC(C)N1CCN(Cc2ccc(-c3ccccc3Cl)o2)CC1CCO (centres undefined)
Completion: 1610 nM (active)

* * *

- test.target: Corticotropin-releasing factor receptor 2/Corticotropin-releasing factor-binding protein (Homo sapiens, UniProt P24387+Q13324)
- Sequence (Q13324 whole entry): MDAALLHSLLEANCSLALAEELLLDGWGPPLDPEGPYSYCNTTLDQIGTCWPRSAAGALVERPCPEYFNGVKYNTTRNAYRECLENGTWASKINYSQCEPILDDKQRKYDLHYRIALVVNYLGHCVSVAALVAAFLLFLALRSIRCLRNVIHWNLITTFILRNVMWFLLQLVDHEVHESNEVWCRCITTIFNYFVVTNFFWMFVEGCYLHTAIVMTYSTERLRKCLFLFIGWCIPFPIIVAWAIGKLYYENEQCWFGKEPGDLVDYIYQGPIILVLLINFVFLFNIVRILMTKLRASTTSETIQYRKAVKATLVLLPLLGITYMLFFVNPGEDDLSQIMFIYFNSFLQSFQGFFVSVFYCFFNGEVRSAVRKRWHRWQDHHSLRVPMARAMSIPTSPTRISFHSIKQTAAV
- Sequence (P24387 whole entry): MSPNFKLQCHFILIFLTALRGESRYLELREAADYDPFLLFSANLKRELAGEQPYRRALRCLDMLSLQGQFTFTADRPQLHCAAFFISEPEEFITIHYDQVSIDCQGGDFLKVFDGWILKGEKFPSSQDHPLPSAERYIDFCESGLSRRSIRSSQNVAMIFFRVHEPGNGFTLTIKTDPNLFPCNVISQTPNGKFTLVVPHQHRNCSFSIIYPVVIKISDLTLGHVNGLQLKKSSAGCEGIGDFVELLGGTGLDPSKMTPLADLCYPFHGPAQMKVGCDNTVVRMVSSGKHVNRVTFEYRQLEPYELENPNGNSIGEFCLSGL
- procedure.text: Dose Response confirmation of uHTS hits for small molecule antagonists of the CRF-binding protein and CRF-R2 receptor complex.
- Type: functional
- stated.conditions: read-out: IC50_Mean
The source made the active and inactive calls.
Choose the fitting class; nothing outside TRUE (active), FALSE (inactive) is accepted.

Solved cases below.
>  <compound>
CSc1c(C#N)sc(=S)n1-c1ccc(C)cc1

>  <cat>
TRUE

$$$$
>  <compound>
Cn1cc(S(=O)(=O)Nc2ccc(Br)cc2F)c(=O)n(C)c1=O

>  <cat>
FALSE

$$$$
>  <compound>
N#CN=C(Nc1cccc(F)c1)SCc1ccccc1F

>  <cat>
TRUE

$$$$
>  <compound>
O=C(CSc1ccccc1)NN1C(=O)c2ccccc2C1=O

>  <cat>
FALSE

$$$$
>  <compound>
CC1(C)CC2CC(C)(CN2/C=C2/CCCCC2=O)C1 (stereo not drawn)

>  <cat>
FALSE

$$$$
>  <compound>
COc1ccc(C2CC(c3ccc(Br)cc3)=NN2C(=O)CCC(=O)O)cc1OC (stereo not drawn)

>  <cat>
FALSE

$$$$

Prompt: Please indicate how the test categorized `O=C(O)CCC(=O)Nc1ccc(Br)c(Cl)c1` .
Completion: TRUE

Prompt: Check `O=C(O)C1=C[C@@H](c2ccc(Br)cc2)C[C@@H](OCc2ccc(CO)cc2)O1` too.
Completion: FALSE

Prompt: Check `COc1ccc(-c2cccc(NS(=O)(=O)c3cccc([N+](=O)[O-])c3)c2)nn1` too.
Completion: FALSE

* * *

Activity calls are given as the source filed them.
IC50 tested on Estrogen receptor beta (Homo sapiens, UniProt Q92731): recorded values;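 further: recombinant ER-beta bound to coactivator SRC1 peptide in presence of estradiol agonist; inhibitors block coactivator peptide binding and lower the FRET signal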
Sequence (Q92731 whole entry): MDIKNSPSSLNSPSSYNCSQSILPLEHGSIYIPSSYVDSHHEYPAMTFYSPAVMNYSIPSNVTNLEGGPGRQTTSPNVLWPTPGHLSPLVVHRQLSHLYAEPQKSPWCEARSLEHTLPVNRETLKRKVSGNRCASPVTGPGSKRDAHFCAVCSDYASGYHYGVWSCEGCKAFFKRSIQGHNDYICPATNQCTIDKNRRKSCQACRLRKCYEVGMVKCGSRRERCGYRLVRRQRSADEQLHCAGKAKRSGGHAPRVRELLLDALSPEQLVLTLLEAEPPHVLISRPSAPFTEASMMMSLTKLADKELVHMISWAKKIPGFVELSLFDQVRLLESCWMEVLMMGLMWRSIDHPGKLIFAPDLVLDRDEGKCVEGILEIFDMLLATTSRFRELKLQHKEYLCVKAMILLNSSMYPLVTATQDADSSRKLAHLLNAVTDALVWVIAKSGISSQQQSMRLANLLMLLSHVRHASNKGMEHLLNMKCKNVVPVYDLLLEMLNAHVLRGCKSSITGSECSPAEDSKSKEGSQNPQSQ

>  <molecular.string>
CC(=O)c1sc2nc(SCC(=O)N3CCCCC3)[nH]c(=O)c2c1C

>  <test.target>
Estrogen receptor beta (Homo sapiens, UniProt Q92731);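 further: recombinant ER-beta bound to coactivator SRC1 peptide in presence of estradiol agonist; inhibitors block coactivator peptide binding and lower the FRET signal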

>  <IC50>
14.6 µM (active)

$$$$

// moving on: another record for IC50
Prompt: State its IC50 on Estrogen receptor beta (Homo sapiens, UniProt Q92731): `Cc1n[nH]c(C)c1S(=O)(=O)N(CC(=O)N1CCc2ccccc21)c1ccc(C(C)C)cc1`
Completion: > 50 µM (not active)

* * *

- test.target: Vascular endothelial growth factor receptor 2 (Homo sapiens, UniProt P35968)
- Sequence (P35968 whole entry): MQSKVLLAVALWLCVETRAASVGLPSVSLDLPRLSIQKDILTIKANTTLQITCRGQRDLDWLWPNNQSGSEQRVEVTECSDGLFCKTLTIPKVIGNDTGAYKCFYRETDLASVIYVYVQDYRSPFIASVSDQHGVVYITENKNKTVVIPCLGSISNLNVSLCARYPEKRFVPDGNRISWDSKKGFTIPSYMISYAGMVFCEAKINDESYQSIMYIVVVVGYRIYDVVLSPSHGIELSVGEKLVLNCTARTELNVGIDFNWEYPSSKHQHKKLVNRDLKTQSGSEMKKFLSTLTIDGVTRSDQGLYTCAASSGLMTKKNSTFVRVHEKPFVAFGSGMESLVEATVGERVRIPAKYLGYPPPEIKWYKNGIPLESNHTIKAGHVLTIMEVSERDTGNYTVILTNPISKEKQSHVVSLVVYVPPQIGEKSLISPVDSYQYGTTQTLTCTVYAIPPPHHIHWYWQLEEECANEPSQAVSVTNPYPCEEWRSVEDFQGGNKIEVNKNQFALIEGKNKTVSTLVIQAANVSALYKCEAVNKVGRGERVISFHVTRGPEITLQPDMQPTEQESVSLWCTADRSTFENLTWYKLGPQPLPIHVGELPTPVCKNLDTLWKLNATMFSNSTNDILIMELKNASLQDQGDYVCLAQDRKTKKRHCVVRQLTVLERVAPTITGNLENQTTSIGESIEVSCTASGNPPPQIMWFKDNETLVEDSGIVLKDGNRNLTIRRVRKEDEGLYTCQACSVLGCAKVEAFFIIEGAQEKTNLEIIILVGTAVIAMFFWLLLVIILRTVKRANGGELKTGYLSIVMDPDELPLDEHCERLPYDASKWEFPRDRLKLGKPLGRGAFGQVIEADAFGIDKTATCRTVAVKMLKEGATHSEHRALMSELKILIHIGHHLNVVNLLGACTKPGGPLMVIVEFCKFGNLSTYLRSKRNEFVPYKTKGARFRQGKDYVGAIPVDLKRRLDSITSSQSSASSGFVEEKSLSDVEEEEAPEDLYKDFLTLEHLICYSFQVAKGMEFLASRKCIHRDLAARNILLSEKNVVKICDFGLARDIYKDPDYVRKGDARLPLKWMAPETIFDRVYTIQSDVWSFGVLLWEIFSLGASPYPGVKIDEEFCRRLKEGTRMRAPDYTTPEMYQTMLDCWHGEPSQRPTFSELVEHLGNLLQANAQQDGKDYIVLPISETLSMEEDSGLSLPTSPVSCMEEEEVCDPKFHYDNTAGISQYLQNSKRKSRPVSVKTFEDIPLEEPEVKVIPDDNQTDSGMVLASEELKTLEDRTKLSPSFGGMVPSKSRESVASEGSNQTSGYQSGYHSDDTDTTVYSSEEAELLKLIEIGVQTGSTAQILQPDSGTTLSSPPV
- Type: functional
Calls of active or inactive are those of the source.
Choose the fitting class; nothing outside T for active, F for inactive is accepted.

Solved cases below.
>  <compound>
Cc1ccc(-c2cc(-c3cc(Br)ccc3O)[nH]c(=O)c2C#N)s1

>  <test.target>
Vascular endothelial growth factor receptor 2 (Homo sapiens, UniProt P35968)

>  <cat>
T

$$$$
>  <compound>
CN(C)CC1CCn2cc(c3ccccc32)C2=C(C(=O)NC2=O)c2cn(c3ccccc23)CCO1 (centres undefined)

>  <test.target>
Vascular endothelial growth factor receptor 2 (Homo sapiens, UniProt P35968)

>  <cat>
T

$$$$
>  <compound>
O=C(Nc1cccc(C2Nc3ccc4ccccc4c3C3C=CCC32)c1)c1ccc(F)cc1 (centres undefined)

>  <test.target>
Vascular endothelial growth factor receptor 2 (Homo sapiens, UniProt P35968)

>  <cat>
F

$$$$

Pending compound:
Prompt: Please indicate how the test categorized `O=C1NCc2ccc(-c3ccccc3)cc21` .
Completion: F

* * *

- test.target: DNA repair and recombination protein RAD54-like (Homo sapiens, UniProt Q92698)
- Sequence (Q92698 whole entry): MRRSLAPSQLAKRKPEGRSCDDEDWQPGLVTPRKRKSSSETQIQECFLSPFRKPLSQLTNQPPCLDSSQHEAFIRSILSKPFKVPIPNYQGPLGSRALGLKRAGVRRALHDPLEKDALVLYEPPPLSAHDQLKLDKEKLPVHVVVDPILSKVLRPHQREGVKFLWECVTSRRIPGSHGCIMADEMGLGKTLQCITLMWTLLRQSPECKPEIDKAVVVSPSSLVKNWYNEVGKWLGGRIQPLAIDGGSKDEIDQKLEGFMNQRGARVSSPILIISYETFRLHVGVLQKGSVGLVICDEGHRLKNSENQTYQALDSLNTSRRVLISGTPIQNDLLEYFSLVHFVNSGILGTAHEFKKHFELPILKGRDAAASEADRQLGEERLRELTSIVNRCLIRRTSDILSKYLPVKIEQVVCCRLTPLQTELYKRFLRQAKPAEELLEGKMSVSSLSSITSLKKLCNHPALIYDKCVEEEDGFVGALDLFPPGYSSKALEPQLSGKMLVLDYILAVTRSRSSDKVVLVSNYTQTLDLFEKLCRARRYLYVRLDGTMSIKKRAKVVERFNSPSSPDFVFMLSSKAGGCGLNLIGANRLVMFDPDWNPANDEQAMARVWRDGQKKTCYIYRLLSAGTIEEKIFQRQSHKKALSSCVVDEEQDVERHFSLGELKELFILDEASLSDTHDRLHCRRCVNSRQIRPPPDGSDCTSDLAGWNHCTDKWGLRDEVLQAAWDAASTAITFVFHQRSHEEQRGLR
- procedure.text: RAD54 Holliday junction migration blockers – biochemical, fluorescence, cherry-picked samples, dose series, confirmation (AID 651657)
- Type: functional
Active and inactive are the calls of the source.
Reported AC50 values for a set of compounds

Worked cases, answers included:
>  <molecular.string>
CCN(CC)CCCNC(=O)c1cc2c(-c3ccc(Cl)cc3)nn(C)c2s1

>  <test.target>
DNA repair and recombination protein RAD54-like (Homo sapiens, UniProt Q92698)

>  <endpoint.value>
35.9 µM (active)

$$$$
>  <molecular.string>
Cc1nc2nc(C)c(C)nc2nc1C

>  <test.target>
DNA repair and recombination protein RAD54-like (Homo sapiens, UniProt Q92698)

>  <endpoint.value>
34.7 µM (active)

$$$$
>  <molecular.string>
COc1ccc(-c2nc(C(=O)NCCCN3CCOCC3)cc3c2[nH]c2ccccc23)cc1OC

>  <test.target>
DNA repair and recombination protein RAD54-like (Homo sapiens, UniProt Q92698)

>  <endpoint.value>
13.7 µM (active)

$$$$
>  <molecular.string>
CC(=O)Nc1cc(-c2cccc(C(=O)NCCN(C)C)c2)cn2c(-c3ccc(S(C)(=O)=O)cc3)cnc12

>  <test.target>
DNA repair and recombination protein RAD54-like (Homo sapiens, UniProt Q92698)

>  <endpoint.value>
25.8 µM (active)

$$$$

// moving on: another record for AC50
Prompt: GET /values?readout=AC50&item= `CCN(CC)CCNc1cccc2sc3ccccc3c(=O)c12`
Completion: 6.59 µM (active)
